Origin of measurements: the supplement of paper PMC9732359

Each entry below lists one item and its recorded protein stability index value.
assay: protein stability index of a GFP-peptide fusion (yeast GPS) (PSI 1-4); higher = more stable; sorted into four equal gates, so the index is relative within each strain; conditions: san1∆

| SEQUENCE CODE | protein stability index |
| --- | --- |
| TRYELYIKNILEAPVKS [YLR335W/NUP2] | 1.66 |
| SCISISDIISMLQISDD [RRI2] | 1.19 |
| NKTLTFETETEVTFKNA [FAS1] | 3.28 |
| FDPFQAVSRSMTDIWNT [ECM29] | 2.85 |
| SVTAQVYKIALRLTEQK [RPC82] | 2.22 |
| DTKIDQVNGNIRKVSND [SMC3] | 3 |
| SIYKYIHLNELLTNDES [SNF12] | 2.19 |
| QRTLSKSFYSTATGAAS [CYT1] | 2.43 |
| PRVIEPVYTAQWSATWI [PRP8] | 2.08 |
| YLHNVELGEKKNEKLKF [ISW2] | 2.89 |
| ELESMLEDLKNTKEIAV [RRP6] | 2.33 |
| FKGVIVKIVDKDGIRQV [PRE1] | 3.16 |
| IVVAMTGKDCVAIACDL [PUP3] | 2.08 |
| DLIETSFTCFAQFVSNK [NUT1] | 1.92 |
| DFITGSYLISHKDSFYD [RPO31] | 2.13 |
| ANNGAAFSPLTTTRIQS [MED2] | 2.65 |
| RNVGKTLVNKSTGLKNA [RPS1B] | 2.59 |
| PLIQNSMRTIMKANPAL [PRP8] | 1.56 |
| NHMLIDSLNQLEIRNKI [RGR1] | 2.92 |
| QEGLITTTMLQLFSTFD [SSN2] | 2.55 |
| KNNNGDEKNKNNNEDNE [MED2] | 2.87 |
| IFLKRKDFTNKNLIQLI [SRB8] | 1.28 |
| TNSSILLGKILPREEHD [RRP6] | 1.61 |
| GEAEAEKEEEEAKEESD [RPP1A] | 2.54 |
| NRTLYELADLPKLKRIG [GRR1] | 2.8 |
| QKKVLIDGPKAGVPRQA [RPL14A] | 3.05 |
| VRSFSKALDELKPEIEK [LRP1] | 3.31 |
| LFHSCTRIQYVDFACCT [GRR1] | 2.2 |
| VDFQNDLKDILEKVVPL [BRR2] | 2.9 |
| QEAIQQNRRLAFEELEG [PRP8] | 2.74 |
| MIISGSRDKTIKVWTIK [ASC1] | 2.49 |
| VSFNSKQNEQLHVEQLS [SMC3] | 2.47 |
| VTNFNSTNEDQNNSKHT [SRB5] | 3.06 |
| TDDSFEDKVFASKGRTK [BRN1] | 2.93 |
| SRGAVSGQKAGLIAARR [RPL2A] | 3.27 |
| SQYFKFKNDFNSFYYTS [RPN9] | 2.51 |
| SLGFNEVFSRPEWMILT [RPO21] | 1.62 |
| ISGYKKFSSTSRYMQYN [RPT1] | 1.56 |
| VDASPNDVTRRTVKNIL [CSL4] | 3.1 |
| GQAIVVHPDYLYGAITE [FAS2] | 1.9 |
| ESTTEATGNESQDATKV [YLR335W/NUP2] | 3.12 |
| TESITHDSSNGLFQVLH [NUT1] | 2.99 |
| MQVYLVPIERVAQLKPF [RPC37] | 1.87 |
| GISDDENDEEDIYMHDV [RRP4] | 2.99 |
| PSLRKLIESGIGTHHAG [BRR2] | 3.11 |
| HVLKTVDYGGAEWSLVR [SNU114] | 3.11 |
| FAQGKRRYDRKQSGFGG [RPL42A] | 3.06 |
| MNRPGARVTRRKRCKGT [RPL11A] | 3.46 |
| PAKSASARGSYLRVSFK [RPL17A] | 3.09 |
| DKFRKACSSSGRETILS [SIR3] | 1.83 |
| DVFNLLPNLGTPDDDEI [RPN8] | 1.43 |
| WNLLRSLYIFFTTLLES [YML103C/NUP188] | 1.69 |
| GKIVSQRGKWNLKYLDN [RGR1] | 2.37 |
| MCEQALSALFTISSKPD [YCS4] | 1.87 |
| WIKFDQELYNELCKKNE [RPN7] | 2.79 |
| KYIVKASSGPRYIVGVR [RPT4] | 3.4 |
| MTVTKVSLPEGSFKRVK [BRR2] | 3.19 |
| KILQKRSISKELIVSEE [SIR3] | 2.28 |
| FSNVELPQCIIPSSYIK [ARP7] | 2.28 |
| KASRKSVGLPSKVASSL [ECM29] | 2.69 |
| VKNTNANPVVATDPVAA [SWP82] | 2.5 |
